System: L929 murine fibroblast cell lines
setup-conditions: 48 h, 0.05 wt %
Where a SMILES comes first, the peptide text is derived from it. [ ]: non-standard residue; d: D form. The star is where a group is joined. Palmitoyl = CCCCCCCCCCCCCCCC(=O)*
measured-attribute: cell viability (%)
Could you give me the number in %? Just the number is fine.

Task: What cell viability appears in the records for this compound with L929 murine fibroblast cell lines? CCCCCCCCCCCCCCCC(=O)N[C@@H](Cc1c[nH]c2ccccc12)C(=O)N[C@H](CCCCN)C(=O)N[C@H](CCCCN)C(N)=O [P2D] (Palmitoyl-Trp-[dK]-[dK]-NH2)
Output: 13.0

Task: And for CCCCCCCCCCCCCCCC(=O)N[C@@H](Cc1ccc(O)cc1)C(=O)N[C@@H](CCCCN)C(=O)N[C@@H](CCCCN)C(N)=O [P1] (Palmitoyl-Tyr-Lys-Lys-NH2) ?
Output: 53.1

Task: And for CCCCCCCCCCCCCCCC(=O)N[C@@H](Cc1ccc(O)cc1)C(=O)N[C@H](CCCCN)C(=O)N[C@H](CCCCN)C(N)=O [P1D] (Palmitoyl-Tyr-[dK]-[dK]-NH2) ?
Output: 44.1

Task: And for CCCCCCCCCCCCCCCC(=O)N[C@@H](Cc1c[nH]c2ccccc12)C(=O)N[C@@H](CCCCN)C(=O)N[C@@H](CCCCN)C(N)=O [P2] (Palmitoyl-Trp-Lys-Lys-NH2) ?
Output: 20.2

----------
Test system: S. aureus NCDO 949
Assay type: cell-based, Staphylococcus aureus
setup-conditions: NCDO 949, 24 h
Where a SMILES comes first, the peptide text is derived from it. [ ]: non-standard residue; d: D form. The star is where a group is joined. Palmitoyl = CCCCCCCCCCCCCCCC(=O)*
Can you tell me MIC for the items I'm about to list?

Task: What MIC appears in the records for this compound with S. aureus NCDO 949? CCCCCCCCCCCCCCCC(=O)N[C@@H](Cc1c[nH]c2ccccc12)C(=O)N[C@@H](CCCCN)C(=O)N[C@@H](CCCCN)C(N)=O [P2] (Palmitoyl-Trp-Lys-Lys-NH2)
Output: 31.25 to 62.5 µg/mL

Task: And for CCCCCCCCCCCCCCCC(=O)N[C@@H](Cc1ccc(O)cc1)C(=O)N[C@@H](CCCCN)C(=O)N[C@@H](CCCCN)C(N)=O [P1] (Palmitoyl-Tyr-Lys-Lys-NH2) ?
Output: 31.25 to 62.5 µg/mL

Task: And for CCCCCCCCCCCCCCCC(=O)N[C@@H](Cc1c[nH]c2ccccc12)C(=O)N[C@H](CCCCN)C(=O)N[C@H](CCCCN)C(N)=O [P2D] (Palmitoyl-Trp-[dK]-[dK]-NH2) ?
Output: 31.25 to 62.5 µg/mL

Task: And for CCCCCCCCCCCCCCCC(=O)N[C@@H](Cc1ccc(O)cc1)C(=O)N[C@H](CCCCN)C(=O)N[C@H](CCCCN)C(N)=O [P1D] (Palmitoyl-Tyr-[dK]-[dK]-NH2) ?
Output: 31.25 µg/mL
